ASSAY_NAME: Plasma concentration in C57BL/6 transverse aortic constriction mouse at 10 mg/kg, po via gavage measured at 3 hrs
Assay type: ADME, organism-based
CONDITION_DETAILS: C57BL/6, mouse
PROPERTY_MEASURED: concentration at 3 h (nM)
Response body: numeric value in nM, unit text excluded.

Please report the measured concentration at 3 h for `CO[C@H]1C[C@H](Oc2cc(F)c(F)c(-c3ccc4c(c3)CC[C@H](CCC(=O)O)O4)n2)C1`
1170

---

ASSAY_NAME: Protein binding in rat plasma at 0.1 mg/kg administered as iv casette dose by LC/MS/MS analysis
Format: ADME, organism-based
CONDITION_DETAILS: read-out: PPB (converted)
Quick reference: fraction unbound of the listed items.
Number only, please.

SMILES_REPRESENTATION	PROPERTY_MEASURED	VALUE_REPORTED
O=C(O)CC[C@H]1CCc2cc(-c3nc(OC4CCC4)ccc3F)ccc2O1	fraction unbound	0.0023
COc1cc(Oc2ncc(C)s2)cc(-c2ccc3c(c2)CC[C@H](CCC(=O)O)O3)c1F	fraction unbound	0.0007
O=C(O)CC[C@H]1CCc2cc(-c3cc(OC4CCC4)cc(F)c3F)ccc2O1	fraction unbound	0.0007
CO[C@H]1C[C@H](Oc2cc(F)c(F)c(-c3ccc4c(c3)CC[C@H](CCC(=O)O)O4)n2)C1	fraction unbound	0.0024

Please report the measured fraction unbound for `COc1cc(O[C@H]2C[C@H](OC)C2)nc(-c2ccc3c(c2)CC[C@H](CCC(=O)O)O3)c1F`
0.0032

Please report the measured fraction unbound for `Cc1cnc(Oc2cc(Cl)c(F)c(-c3ccc4c(c3)CC[C@H](CCC(=O)O)O4)c2)s1`
0.0003

Please report the measured fraction unbound for `O=C(O)CC[C@H]1CCc2cc(-c3cc(OC(F)(F)F)ccc3F)ccc2O1`
0.0016
